system: TLR2 induced IL-6 in peripheral blood mononuclear cells (PBMCs); assay: PBMC TLR2 Induced IL-6 Assay; assay type: cell-based; conditions: Homo sapiens, PBMC, 5 h, 10 μg/ml lipoteichoic acid for 5 hours, IL-6 by ELISA, values marked * are EC50, read-out: Cell EC50 (values marked *)
measured_attribute: log10 EC50 (log10 of the value in nM)
Annotation: log10 of EC50, nM basis.

log10 EC50 lookup needed for `CC(C)(O)[C@H](F)CNC(=O)c1cnc(Nc2ncc(C#N)cc2Cl)cc1Nc1cccc(C(N)=O)c1` , thanks. 2.10

log10 EC50 lookup needed for `COC(C)(C)[C@H](F)CNC(=O)c1cnc(Nc2ncc(C#N)cc2F)cc1NC(C)C` , thanks. 1.69

log10 EC50 lookup needed for `CC(C)Nc1cc(Nc2ncc(C#N)cc2Cl)ncc1C(=O)NC[C@H](F)C(C)(C)O` , thanks. 2.09

log10 EC50 lookup needed for `CC(C)Nc1cc(Nc2ccnc(N)n2)ncc1C(=O)NC[C@@H](F)C(C)(C)O` , thanks. 2.14

log10 EC50 lookup needed for `CC(C)CCNc1cc(Nc2ncc(C#N)cc2F)ncc1C(=O)NC[C@@H](F)C(C)(C)O` , thanks. 2.61

log10 EC50 lookup needed for `CCn1ncc(Nc2cc(NC(C)C)c(C(=O)NC[C@@H](F)C(C)(C)O)cn2)n1` , thanks. 2.39

log10 EC50 lookup needed for `Cn1nnnc1-c1ccc(Nc2cc(Nc3ncc(C#N)cn3)ncc2C(=O)NC[C@@H](F)C(C)(C)O)cc1` , thanks. 2.64

log10 EC50 lookup needed for `C[C@@H](CO)Nc1cc(Nc2ncc(C#N)cn2)ncc1C(=O)NC[C@@H](F)C(C)(C)O` , thanks. 2.58

log10 EC50 lookup needed for `CS[C@H]1CC[C@H](NC(=O)c2cnc(Nc3ncc(C#N)cc3F)cc2NC(C)C)CC1` , thanks. 2.30

log10 EC50 lookup needed for `CC(C)Nc1cc(Nc2ncncc2N)ncc1C(=O)NC[C@@H](F)C(C)(C)O` , thanks. 2.94

log10 EC50 lookup needed for `CCCNc1cc(Nc2ncc(C#N)cc2F)ncc1C(=O)NC[C@@H](F)C(C)(C)O` , thanks. 2.06

log10 EC50 lookup needed for `CC(C)Nc1cc(Nc2ncc(C#N)cc2F)ncc1C(=O)N[C@H]1CC[C@H](C(=O)NC(C)C)CC1` , thanks. 2.11

log10 EC50 lookup needed for CC(C)(F)CNc1cc(Nc2ncc(C#N)cc2Cl)ncc1C(=O)NC1CCC(C(C)(C)O)CC1 (centres unmarked) , thanks. 2.29

log10 EC50 lookup needed for `CCC(O)(CC)[C@H](F)CNC(=O)c1cnc(Nc2ncc(C#N)cn2)cc1NC(C)C` , thanks. 2.31

log10 EC50 lookup needed for `CC(=O)N[C@H]1CC[C@H](NC(=O)c2cnc(Nc3ncc(C#N)cc3F)cc2NC2CC2)CC1` , thanks. 2.89

log10 EC50 lookup needed for `CC(C)Nc1cc(Nc2ncc(O)cn2)ncc1C(=O)NC[C@@H](F)C(C)(C)O` , thanks. 2.81

log10 EC50 lookup needed for `Cc1cnc(Nc2cc(NC(C)C)c(C(=O)NC[C@@H](F)C(C)(C)O)cn2)nc1` , thanks. 2.75

log10 EC50 lookup needed for `CC(C)(O)[C@H](F)CNC(=O)c1cnc(Nc2ncc(C#N)cc2Cl)cc1NC12CC(C1)C2` , thanks. 2.39

log10 EC50 lookup needed for CC(C)(O)[C@H](F)CNC(=O)c1cnc(Nc2ncc(C(N)=O)cc2Cl)cc1NC1CCC(F)C1 (some centres unmarked) , thanks. 2.66

log10 EC50 lookup needed for `CS(=O)(=O)[C@H]1CC[C@H](NC(=O)c2cnc(Nc3ncc(C#N)cc3F)cc2Nc2cccc(C(N)=O)c2)CC1` , thanks. 2.48

log10 EC50 lookup needed for CC(C)Nc1cc(Nc2ncc(C#N)cc2F)ncc1C(=O)NC1CCC(O)(c2nccs2)CC1 (centres unmarked) , thanks. 2.80

log10 EC50 lookup needed for `CC(C)(O)[C@H](F)CNC(=O)c1cnc(Nc2ncc(C#N)cc2Cl)cc1NCC(F)(F)F` , thanks. 2.19

log10 EC50 lookup needed for `CC(C)Nc1cc(Nc2ncc(C#N)cc2F)ncc1C(=O)N[C@H]1CC[C@H](C(=O)NC2CC2)CC1` , thanks. 2.24

log10 EC50 lookup needed for `CC(C)(O)[C@H](F)CNC(=O)c1cnc(Nc2ncc(C#N)cc2F)cc1Nc1cccc(O)c1` , thanks. 1.93

log10 EC50 lookup needed for `COC[C@H](F)CNC(=O)c1cnc(Nc2ncc(C#N)cc2F)cc1NC(C)C` , thanks. 2.54

log10 EC50 lookup needed for `CC(C)Nc1cc(Nc2nc(OC3CCNCC3)ncc2Cl)ncc1C(=O)NC[C@@H](F)C(C)(C)O` , thanks. 2.20
